Sourced from PubChem BioAssay (NCI)

Assay: NCI Yeast Anticancer Drug Screen. Data for the rad50 strain (AID 155);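 further: 0% = growth of vehicle-only cultures of the same strain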
Conditions: S. cerevisiae rad50 strain growth inhibition; at 50.0 µM; active compounds read high
About 79,000 compounds went through this panel and 15% of them were active in at least one assay; those are over-represented in the sample as a whole.
endpoint: growth inhibition (%)

molecule: Fc1ccc(NC2=NCCN=C(Nc3ccc(F)cc3)SS2)cc1
endpoint: growth inhibition
observed: 85

molecule: S=C(CSc1ccccc1)Nc1cccc2ccccc12
endpoint: growth inhibition
observed: 77

molecule: CC1(C)CC(=O)C(CSC(=O)c2ccccc2)=C(O)C1
endpoint: growth inhibition
observed: -13.9

molecule: CC(C)(Oc1ccc(-c2cccc3ccccc23)cc1)C(=O)O
endpoint: growth inhibition
observed: 58.3

molecule: O=C(O)CSc1cc2c3ccccc3sc2c2ccccc12
endpoint: growth inhibition
observed: 96.3

molecule: COC(=O)/C=C1/OC(c2ccccc2)=CC1=O
endpoint: growth inhibition
observed: 87.5

molecule: CN=C(N)N/N=C(\C)c1ccc2c(ccc3ccccc32)c1
endpoint: growth inhibition
observed: 89.2

molecule: C/C(=N\NC(=S)N1CCN(c2cnccn2)CC1)c1ccccn1
endpoint: growth inhibition
observed: 91.4

molecule: CC1C/C(=C\c2ccc(O)c(O)c2)C(=O)/C(=C/c2ccc(O)c(O)c2)C1 (centres undefined)
endpoint: growth inhibition
observed: 52.4
